# experimental_system: UniProt P11712
# Sequence (P11712 whole entry): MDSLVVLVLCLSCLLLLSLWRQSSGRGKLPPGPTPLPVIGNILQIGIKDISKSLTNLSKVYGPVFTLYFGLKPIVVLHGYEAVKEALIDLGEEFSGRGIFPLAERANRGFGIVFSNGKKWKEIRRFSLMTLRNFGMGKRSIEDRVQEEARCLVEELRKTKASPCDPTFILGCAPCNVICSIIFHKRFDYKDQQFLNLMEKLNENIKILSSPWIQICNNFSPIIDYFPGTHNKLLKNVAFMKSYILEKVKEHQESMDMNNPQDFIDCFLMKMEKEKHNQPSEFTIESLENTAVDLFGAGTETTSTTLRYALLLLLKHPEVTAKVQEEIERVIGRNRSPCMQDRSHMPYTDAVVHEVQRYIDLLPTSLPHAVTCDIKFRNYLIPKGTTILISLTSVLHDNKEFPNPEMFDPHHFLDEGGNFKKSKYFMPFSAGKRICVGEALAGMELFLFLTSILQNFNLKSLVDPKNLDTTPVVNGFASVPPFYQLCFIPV
property_label: IC50 (µM)
I only need the number, in µM, no unit after it.

Give the reported IC50 for `C[N+](C)(C)CCC(=O)c1cccc2ccccc12.[I-]` (system: UniProt P11712).
14.6

====

# experimental_system: Cyp2C19 (Homo sapiens, UniProt P33261)
# Sequence (P33261 whole entry): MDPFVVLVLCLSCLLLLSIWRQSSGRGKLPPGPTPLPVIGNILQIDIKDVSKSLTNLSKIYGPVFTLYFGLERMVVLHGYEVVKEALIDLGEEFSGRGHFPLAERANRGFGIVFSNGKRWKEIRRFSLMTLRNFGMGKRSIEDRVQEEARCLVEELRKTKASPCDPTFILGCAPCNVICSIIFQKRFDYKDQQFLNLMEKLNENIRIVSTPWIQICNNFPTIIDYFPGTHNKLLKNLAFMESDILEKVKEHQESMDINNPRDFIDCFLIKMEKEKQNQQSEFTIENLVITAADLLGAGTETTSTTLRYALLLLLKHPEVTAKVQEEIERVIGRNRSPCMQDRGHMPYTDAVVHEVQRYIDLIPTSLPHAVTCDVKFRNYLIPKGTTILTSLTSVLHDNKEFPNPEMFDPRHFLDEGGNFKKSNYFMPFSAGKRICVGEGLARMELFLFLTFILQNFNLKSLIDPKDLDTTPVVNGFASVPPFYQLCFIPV
property_label: IC50 (µM)
I only need the number, in µM, no unit after it.

If you can, please state the reported IC50 value of C[N+](C)(C)CCC(=O)c1cccc2ccccc12.[I-] [α-NETA] .
84

====

# experimental_system: CYP3A4 (Homo sapiens, UniProt P08684)
# Construct: tissue Cyprotex/Evotec AG; host or cells: human liver microsomes
# Sequence (P08684 whole entry): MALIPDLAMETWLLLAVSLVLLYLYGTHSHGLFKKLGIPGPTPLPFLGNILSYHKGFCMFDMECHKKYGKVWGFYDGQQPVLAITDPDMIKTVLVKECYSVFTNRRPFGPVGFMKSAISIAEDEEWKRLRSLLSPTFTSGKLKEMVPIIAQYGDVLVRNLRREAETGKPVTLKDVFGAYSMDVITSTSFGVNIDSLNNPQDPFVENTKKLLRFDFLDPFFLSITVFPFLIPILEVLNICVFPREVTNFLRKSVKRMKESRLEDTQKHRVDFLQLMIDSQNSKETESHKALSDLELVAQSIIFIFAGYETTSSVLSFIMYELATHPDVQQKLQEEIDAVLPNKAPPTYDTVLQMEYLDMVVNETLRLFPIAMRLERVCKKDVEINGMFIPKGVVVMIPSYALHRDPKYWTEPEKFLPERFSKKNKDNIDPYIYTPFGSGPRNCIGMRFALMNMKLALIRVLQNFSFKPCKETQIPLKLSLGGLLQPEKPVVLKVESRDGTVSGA
# assay_remarks: Cyp enzyme inhibition in human liver microsomes
# Assay type: in vitro ADME
# particulars: substrate Midazolam
property_label: pIC50
Answer as the number alone; pIC50 is minus log10 of concentration in mol/L.

If you can, please state the reported pIC50 value of `C[N+](C)(C)CCC(=O)c1cccc2ccccc12.[I-]` .
5.12

Origin of values: paper PMC6509344
